Assay: Cytotoxicity evaluation by MTT assay
Format: cell-based
Details: monkey, Vero cells, * mean of 2 experiments
Assign CC50 to each entry below.

Lab note: measured CC50 of O=C1c2ccccc2O[C@H](c2ccccc2[N+](=O)[O-])[C@@]1(Cl)[N+](=O)[O-] (relative stereo) was > 50 µM

// CC50 value for C[C@@H]1CC[C@H]2[C@@H](C)C(=O)O[C@@H]3O[C@@]4(C)CC[C@@H]1[C@]32OO4 : > 100 µM

Entry COc1ccc([N+](=O)[O-])c(C2Oc3ccccc3C(=O)C2(Cl)[N+](=O)[O-])c1 (centres unmarked) , CC50 reported as > 50 µM

GET /value?item= O=C1c2ccccc2O[C@H](c2ccccc2)[C@]1(F)[N+](=O)[O-] (relative stereo) &field=CC50 returns 20 µM

CC50 reading for Cc1noc(C)c1-c1ccc2c(c1)nc(CCc1ccc(O)cc1)n2CCN1CCOCC1 : 24 µM

The compound COc1cccc(C2Oc3ccccc3C(=O)C2(Cl)[N+](=O)[O-])c1 (centres unmarked) showed CC50 equal to > 50 µM

Sample Cc1sc2c(c1C)C(c1ccc(Cl)cc1)=N[C@@H](CC(=O)OC(C)(C)C)c1nnc(C)n1-2 [(+)-JQ-1] ; CC50 observed: 0.2 µM

Lab book: CC50 of O=C1c2ccccc2OC(c2ccccc2)C1(Br)[N+](=O)[O-] (centres unmarked) noted as > 50 µM

* * *

Test system: ART-resistant parasites F32-ART at the quiescent stage
Test: Quiescent-stage Survival Assay (QSA), 48-h exposure
Assay type: cell-based, Plasmodium falciparum
Conditions: quiescence induced with DHA 700 nM 6 h, then 48 h DHA + compound at its IC90
parameter: Delay in recrudescence time, DHA/DHA + compound vs DHA/DHA

CCC(=O)CCCCC[C@@H]1NC(=O)[C@H]2CCCCN2C(=O)[C@H]([C@@H](C)CC)NC(=O)[C@H](Cc2cn(OC)c3ccccc23)NC1=O: slightly shorter delay
COc1cc2c(NC3CCN(C)CC3)nc(N3CCCN(C)CC3)nc2cc1OCc1ccccc1: ≥ 6 days
Cc1cc(Nc2ccc(NC(=O)c3ccc(Nc4ccnc5ccccc45)cc3)cc2)nc(N)n1: ≥ 6 days
COc1cc2nc(N3CCCN(C)CC3)nc(NC3CCN(Cc4ccccc4)CC3)c2cc1OC: slightly shorter delay

* * *

Experiment: Cytotoxicity evaluation by MTT assay
Assay type: cell-based
Conditions: monkey, Vero cells, * mean of 2 experiments
parameter: CC50 (µM)
Answer with a number only, understood to be in µM.

Value of CC50 reported for the compound Cc1sc2c(c1C)C(c1ccc(Cl)cc1)=N[C@@H](CC(=O)NCC13CC4CC(CC(C4)C1)C3)c1nnc(C)n1-2 is 3

GET /value?item= C[C@]1([N+](=O)[O-])C(=O)c2ccccc2O[C@@H]1c1ccccc1[N+](=O)[O-] (relative stereo) &field=CC50 returns 6.5

The recorded CC50 for O=C1c2ccccc2O[C@H](c2ccccc2[N+](=O)[O-])[C@@]1(Br)[N+](=O)[O-] (relative stereo) is 40

Quick note, CC50 for COc1ccc([N+](=O)[O-])c(C2Oc3ccccc3C(=O)C2(Br)[N+](=O)[O-])c1 (stereo not shown) landed at 36

* * *

Assay: Cytotoxicity evaluation by MTT assay
Type: cell-based
Settings: monkey, Vero cells, * mean of 2 experiments
parameter: CC50

Sure, the documented CC50 for Cc1ncsc1-c1ccc(CNC(=O)[C@@H]2C[C@@H](O)CN2C(=O)[C@@H](NC(=O)COCCOCCOCCNC(=O)C[C@@H]2N=C(c3ccc(Cl)cc3)c3c(sc(C)c3C)-n3c(C)nnc32)C(C)(C)C)cc1 is > 50 µM

// O=C1c2ccccc2OC(c2ccccc2)C1[N+](=O)[O-] (stereo not drawn) : CC50 value = > 50 µM

Lab book: CC50 of O=C1c2ccccc2O[C@H](c2ccccc2F)[C@@]1(Br)[N+](=O)[O-] (relative stereo) noted as > 50 µM
